test.protocol: Stability in human liver microsomes at 1 uM
Type: ADME, Microsome
recorded.conditions: read-out: Stability
remaining at 1 µM strictly under 70% means rule met; at 70% or over means rule not met.

INSERT INTO measurements (molecular_string, category_label) VALUES
  ('N[C@@H](Cc1ccc(-c2ccccc2)cc1)C(=O)N1CCSC1', 'rule met'),
  ('N#C[C@@H]1CCCN1C(=O)[C@@H](N)Cc1ccc(-c2ccc(F)cc2)cc1', 'rule met'),
  ('N#C[C@@H]1CCCN1C(=O)[C@@H](N)Cc1ccc(-c2ccccc2)cc1', 'rule met'),
  ('N[C@@H](Cc1ccc(-c2ccc(F)cc2)cc1)C(=O)N1CCSC1', 'rule not met'),
  ('N#C[C@@H]1CCCN1C(=O)[C@@H](N)Cc1ccc(-c2ccc(F)cc2F)cc1', 'rule not met');

====

test.protocol: Permeability from basolateral to apical side of the Caco-2 cell membrane at 10 uM
Format: ADME, cell-based
recorded.conditions: human
outcome.measure: Papp B→A at 10 µM (×10⁻⁶ cm/s)

INSERT INTO results (molecular_string, numeric_value) VALUES
  ('N#C[C@@H]1CCCN1C(=O)[C@@H](N)Cc1ccc(-c2ccc(F)cc2)cc1', 4.45),
  ('N[C@@H](Cc1ccc(-c2ccc(F)cc2)cc1)C(=O)N1CCSC1', 5.61),
  ('N[C@@H](Cc1ccc(-c2ccccc2)cc1)C(=O)N1CCSC1', 1.5),
  ('N#C[C@@H]1CCCN1C(=O)[C@@H](N)Cc1ccc(-c2ccccc2)cc1', 3.82),
  ('N#C[C@@H]1CCCN1C(=O)[C@@H](N)Cc1ccc(-c2ccc(F)cc2F)cc1', 4.93);

====

test.protocol: Permeability from apical to basolateral side of the Caco-2 cell membrane at 10 uM
Format: ADME, cell-based
recorded.conditions: human
Assign 1.0 to entries whose Papp A→B at 10 µM meets or exceeds 5 ×10⁻⁶ cm/s; assign 0.0 to the rest.

INSERT INTO assay_data (molecular_string, category_label) VALUES
  ('N[C@@H](Cc1ccc(-c2ccc(F)cc2)cc1)C(=O)N1CCSC1', 1.0),
  ('N#C[C@@H]1CCCN1C(=O)[C@@H](N)Cc1ccc(-c2ccc(F)cc2)cc1', 1.0),
  ('N[C@@H](Cc1ccc(-c2ccccc2)cc1)C(=O)N1CCSC1', 0.0),
  ('N#C[C@@H]1CCCN1C(=O)[C@@H](N)Cc1ccc(-c2ccccc2)cc1', 0.0);

// provenance: ChEMBL document CHEMBL1148544
